# System: NCI-H522 lung
# experimental-details: NCI tumour cell line growth inhibition, 48 h; in the data active = GI50 below about 0.43 µM; inactive = the rest
# output must be one of true (1) for active, false (0) for inactive

### Prompt Hey, what did the test say about NC1=NC(=O)N2CC12 (stereo not given) ?
### Response false (0)

### Prompt Hey, what did the test say about "CC(C)(Cl)CCC1=C(Cl)C(=O)c2ccccc2C1=O" ?
### Response false (0)

### Prompt Hey, what did the test say about Nc1nc(N)c2nc(CNc3ccc(C(=O)CC(CCC(=O)O)C(=O)O)cc3)cnc2n1 (stereo not given) ?
### Response false (0)

### Prompt Hey, what did the test say about "COc1cc(N2CCC(N3CCN(C)CC3)CC2)ccc1Nc1ncc(Cl)c(Nc2ccccc2P(C)(C)=O)n1" ?
### Response false (0)

### Prompt Hey, what did the test say about "CS(=O)(=O)CCNCc1ccc(-c2ccc3ncnc(Nc4ccc(OCc5ccccc5)c(C(F)(F)F)c4)c3c2)o1" ?
### Response false (0)

### Prompt Hey, what did the test say about "O=S(=O)(NCCNc1cc(-c2cn(-c3ccccc3)nc2-c2cccc(O)c2)ccn1)c1ccc(C(F)(F)F)cc1" ?
### Response false (0)

### Prompt Hey, what did the test say about "CC(=O)[O-].CC(=O)[O-].[Mn+2].c1ccc(/C(=N\Nc2ccccn2)c2ccccn2)cc1" ?
### Response true (1)

### Prompt Hey, what did the test say about "O=C1C=C(Nc2ccccc2)c2ncccc2C1=O" ?
### Response false (0)

### Prompt Hey, what did the test say about CCC1CCc2nc3sc(C(=O)Nc4ccccc4F)c(N)c3cc2C1 (stereo not given) ?
### Response false (0)

### Prompt Hey, what did the test say about CCC[CH2][Sn]1([CH2]CCC)[O]C(c2ccccn2)S(=O)(=O)[O]1 (stereo not given) ?
### Response false (0)
